tested on: EKVX NSCLC; experiment: NCI-60 one-dose screen, 48 h; conditions: 10 µM unless noted
About 83,000 compounds went through this panel and 20% of them were active in at least one assay; those are over-represented in the sample as a whole. Active and inactive are the calls of the source. How the source made its calls: active means growth percent below 10; inactive means the rest.
Pick from T for active, F for inactive when you respond.

Worked examples, 4 compounds total:
INSERT INTO measurements (compound, assigned_label) VALUES
  ('COC1CCN(Cc2ccc3c(NNC(=O)c4cnccn4)nc4cc(F)ccc4n23)C1 (centres undefined)', 'F'),
  ('CS(=O)(=O)c1ccc(-c2nc3ccccn3c2/C=N/Nc2nc(-c3ccc(Br)cc3)cs2)cc1', 'F'),
  ('O=C(c1ccc(Cl)cc1)C1[C@H](c2ccc(Cl)cc2)[C@@H](c2ccccc2)NC12C(=O)Nc1ccc(Br)cc12 (some centres undefined)', 'F'),
  ('Oc1c(Cl)cc(Cl)c2ccc(CN3CCCCC3)nc12', 'F');

Req: What was the test verdict on Cc1cccc2sc(/N=C(\N)C(Cl)(Cl)Cl)nc12 ?
Resp: F

Req: Also, Cc1ccc(CNS(=O)(=O)/N=C2\NC(=O)NC2=C(Cl)Cl)cc1 please.
Resp: F

Req: Also, CC1=C(C)C(=O)C(Nc2ccccc2)=C(Cl)C1=O please.
Resp: F

Req: Also, COc1ccc(CNS(=O)(=O)/N=C2\NC(=O)NC2=C(Cl)Cl)cc1 please.
Resp: F

Req: Also, COc1ccc([C@@H]2c3[nH]c4ccccc4c3CC3C(=O)N(C4CCN(Cc5c(F)cccc5F)CC4)CC(=O)N32)c(OC)c1 (some centres undefined) please.
Resp: F

Req: Also, COc1cc(OC)c(C2SCC(=O)N2Nc2ncnc3ccccc23)cc1OC (centres undefined) please.
Resp: F

Req: Also, C=CCSc1ccc2c(c1)C(N1CCNCC1)=Nc1ccccc1O2 please.
Resp: F

Req: Also, COc1ccc(NC2=CC(=O)C(C)=C(C)C2=O)cc1 please.
Resp: F

Req: Also, CN(C)CCCOc1c2ccccc2nc2c1oc1ccc(Cl)cc12 please.
Resp: F

Req: Also, Cc1cc2nc3c4cc(Cl)ccc4n(CC(=S)NCCN(C)C)c3nc2cc1C please.
Resp: T

====

system: SK-MEL-28 melanoma; assay: NCI-60 one-dose screen, 48 h (100 = growth as untreated, 0 = no growth, -100 = all killed); conditions: 10 µM unless noted
About 83,000 compounds went through this panel and 20% of them were active in at least one assay; those are over-represented in the sample as a whole.
Please enter Yes where growth is greater than or equal to 70%, and No where it is lower.

INSERT INTO measurements (compound, assigned_label) VALUES
  ('O=C1c2c(c3c4cccnc4[nH]c3c3ccc4ccccc4c23)C(=O)N1CCO', 'Yes'),
  ('CN(C)CCCNc1c2ccc(Cl)cc2nc2c1oc1ccc(Cl)cc12', 'Yes'),
  ('COc1ccc(-c2nc3ccc(-c4nnc(SCC(=O)Nc5ccc(C(=O)/C=C/c6ccccc6)cc5)o4)cc3[nH]2)cc1OC', 'Yes'),
  ('CCCC(=O)NC(c1ccc2c(c1)OC(F)(F)O2)c1cc(C)c2cccnc2c1O (stereo not drawn)', 'No'),
  ('COc1ccc(N/N=C/c2c(-c3ccc(S(C)(=O)=O)cc3)nc3ccccn23)cc1', 'No'),
  ('C#C[C@]1(O)CC[C@H]2[C@@H]3CC=C4c5sc(-c6ccc(F)cn6)nc5CC[C@]4(C)[C@H]3CC[C@@]21C', 'No'),
  ('CS(=O)(=O)c1ccc(-n2cc(/C=C/C(=O)c3ccc(NC(=O)CO[N+](=O)[O-])cc3)c(-c3ccc(Cl)cc3)n2)cc1', 'No');

For the next question, use this compound.
Req: Is it the case that O=C(N/N=C/c1ccc([N+](=O)[O-])s1)c1[nH]c2ccc(Br)cc2c1-c1ccccc1 has growth reaching or exceeding 70%?
Resp: No

Entry source: PubChem BioAssay (NCI)
